# Test system: ras farnesylation in ras-transformed cells
# Assay Method Text: Gel shift assay
# Type: cell-based
# Measurement Context: 18-hour incubation
Gel Shift (μM) M.E.D. (minimal effective dose to observe inhibition of ras farnesylation) listing for selected compounds.
Quick note: give the figure in µM, leave out the unit.

compound="COc1ccc(CN(CC(=O)NCC2(c3ccccc3)CCC2)C(=O)[C@H](Cc2c[nH]cn2)NC(=O)OCc2ccccc2)cc1 [Example 6]" test_value=0.002

Noted Gel Shift (μM) M.E.D. (minimal effective dose to observe inhibition of ras farnesylation) for Cc1ccc(CN(CC(=O)NCC2(c3ccccc3)CCC2)C(=O)[C@H](Cc2c[nH]cn2)NC(=O)OCc2ccccc2)cc1 [Example 4] , tested on ras farnesylation in ras-transformed cells: 0.01

Noted Gel Shift (μM) M.E.D. (minimal effective dose to observe inhibition of ras farnesylation) for O=C(CN(Cc1ccc(OCc2ccccc2)cc1)C(=O)[C@H](Cc1c[nH]cn1)NC(=O)OCc1ccccc1)NCC1(c2ccccc2)CCCC1 [Example 5] , tested on ras farnesylation in ras-transformed cells: 0.2

Noted Gel Shift (μM) M.E.D. (minimal effective dose to observe inhibition of ras farnesylation) for O=C(CN(Cc1ccc(OCc2ccccc2)cc1)C(=O)[C@H](Cc1c[nH]cn1)NC(=O)OCc1ccccc1)NCC1(c2ccccc2)CCC1 [Example 1] , tested on ras farnesylation in ras-transformed cells: 0.02

###

# Test system: ras farnesylation in ras-transformed cells
# Assay Method Text: Gel shift assay
# Format: cell-based
# Measurement Context: 18-hour incubation
Observation Type: Gel Shift (μM) M.E.D. (minimal effective dose to observe inhibition of ras farnesylation) (µM)
Quick note: give the figure in µM, leave out the unit.

Examples with answers:
compound="O=C(CN(Cc1ccc(OCc2ccccn2)cc1)C(=O)[C@H](Cc1c[nH]cn1)NC(=O)OCc1ccccc1)NCC1(c2ccccc2)CCC1 [Example 3]" test_value=0.002
compound="O=C(CN(Cc1ccc(OCc2ccccc2)cc1)C(=O)[C@H](Cc1c[nH]cn1)NC(=O)OCc1ccccc1)NCC1(c2ccccc2)CC1 [Example 2]" test_value=0.02
compound="CN(Cc1ccccc1)C(=O)N[C@@H](Cc1c[nH]cn1)C(=O)N(CC(=O)NCC1(c2ccccc2)CCC1)Cc1ccc(OCc2ccccc2)cc1 [Example 8]" test_value=0.01

Value of measured Gel Shift (μM) M.E.D. (minimal effective dose to observe inhibition of ras farnesylation) for the entry Cc1ccc(CN(CC(=O)NCC2(c3ccccc3)CCC2)C(=O)[C@H](Cc2c[nH]cn2)NC(=O)N(C)Cc2ccccc2)cc1 [Example 7] : 0.01

###

# Target: SF9 affinity purified rat farnesyl protein transferase (Rattus norvegicus, UniProt Q02293+Q04631)
# Construct: made in house; host or cells: Sf9 insect cells (baculovirus system, inferred from b7)
# Assay Method Text: PFT inhibitory activity
# Assay type: biochemical
# Measurement Context: HEPES buffer pH 7.4 without 5 mM potassium phosphate; read-out: PFT Inhibitory Activity IC50 (μM) HEPES
Observation Type: IC50 (µM)
Quick note: give the figure in µM, leave out the unit.

Value of measured IC50 for the entry COc1ccc(CN(CC(=O)NCC2(c3ccccc3)CCC2)C(=O)[C@H](Cc2c[nH]cn2)NC(=O)OCc2ccccc2)cc1 : 0.26

###

IC50 listing for selected molecules.
# Target: SF9 affinity purified rat farnesyl protein transferase (Rattus norvegicus, UniProt Q02293+Q04631)
# Construct: made in house; host or cells: Sf9 insect cells (baculovirus system, inferred from b7)
# Assay Method Text: PFT inhibitory activity
# Assay type: biochemical
# Measurement Context: HEPES buffer pH 7.4 with 5 mM potassium phosphate; read-out: PFT Inhibitory Activity IC50 (μM) HEPES and 5 mM K3 PO4
Quick note: give the figure in µM, leave out the unit.

Examples with answers:
smiles_repr=O=C(CN(Cc1ccc(OCc2ccccc2)cc1)C(=O)[C@H](Cc1c[nH]cn1)NC(=O)OCc1ccccc1)NCC1(c2ccccc2)CCC1 unit_string=µM test_value=0.006
smiles_repr=O=C(CN(Cc1ccc(OCc2ccccc2)cc1)C(=O)[C@H](Cc1c[nH]cn1)NC(=O)OCc1ccccc1)NCC1(c2ccccc2)CCCC1 unit_string=µM test_value=0.018

As a next step, examine the molecule that follows.
Value of measured IC50 for the entry CN(Cc1ccccc1)C(=O)N[C@@H](Cc1c[nH]cn1)C(=O)N(CC(=O)NCC1(c2ccccc2)CCC1)Cc1ccc(OCc2ccccc2)cc1 : 0.015

###

# Target: SF9 affinity purified rat farnesyl protein transferase (Rattus norvegicus, UniProt Q02293+Q04631)
# Construct: made in house; host or cells: Sf9 insect cells (baculovirus system, inferred from b7)
# Assay Method Text: PFT inhibitory activity
# Type: biochemical
# Measurement Context: HEPES buffer pH 7.4 without 5 mM potassium phosphate; read-out: PFT Inhibitory Activity IC50 (μM) HEPES
Simple rule here: IC50 less than 0.3 µM is yes (1), otherwise no (0).

Consider the following illustrative entries.
molecule=O=C(CN(Cc1ccc(OCc2ccccc2)cc1)C(=O)[C@H](Cc1c[nH]cn1)NC(=O)OCc1ccccc1)NCC1(c2ccccc2)CCCC1 answer_label="no (0)"
molecule=CCCN(CC(=O)NCC1(c2ccccc2)CCC1)C(=O)[C@H](Cc1cnc[nH]1)NC(=O)OCc1ccccc1 answer_label="yes (1)"
molecule=O=C(CN(Cc1ccc(OCc2ccccc2)cc1)C(=O)[C@H](Cc1c[nH]cn1)NC(=O)OCc1ccccc1)NCC1(c2ccccc2)CC1 answer_label="yes (1)"
molecule=CN(Cc1ccccc1)C(=O)N[C@@H](Cc1c[nH]cn1)C(=O)N(CC(=O)NCC1(c2ccccc2)CCC1)Cc1ccc(OCc2ccccc2)cc1 answer_label="yes (1)"
molecule=O=C(CN(Cc1ccc(OCc2ccccn2)cc1)C(=O)[C@H](Cc1c[nH]cn1)NC(=O)OCc1ccccc1)NCC1(c2ccccc2)CCC1 answer_label="yes (1)"
molecule=Cc1ccc(CN(CC(=O)NCC2(c3ccccc3)CCC2)C(=O)[C@H](Cc2c[nH]cn2)NC(=O)OCc2ccccc2)cc1 answer_label="yes (1)"
molecule="C/C=C/CN(CC(=O)NCC1(c2ccccc2)CCC1)C(=O)[C@H](Cc1cnc[nH]1)NC(=O)OCc1ccccc1 (stereo in doubt)" answer_label="yes (1)"
molecule=Cc1ccc(CN(CC(=O)NCC2(c3ccccc3)CCC2)C(=O)[C@H](Cc2c[nH]cn2)NC(=O)N(C)Cc2ccccc2)cc1 answer_label="yes (1)"
molecule=O=C(CN(Cc1ccc(OCc2ccccc2)cc1)C(=O)[C@H](Cc1c[nH]cn1)NC(=O)OCc1ccccc1)NCC1(c2ccccc2)CCC1 answer_label="yes (1)"

Report whether reported IC50 is lower than 0.3 µM (strictly) for O=C(CN(Cc1ccc(OCc2ccccc2)cc1)C(=O)[C@H](Cc1c[nH]cn1)NC(=O)OCc1ccccc1)NCC1(c2c(Cl)cccc2Cl)CCC1
no (0)
